Cited source for all entries: paper PMC9482650

Molecular target: FRMPD2_2, Q68DX3
Sequence (Q68DX3 944-1038): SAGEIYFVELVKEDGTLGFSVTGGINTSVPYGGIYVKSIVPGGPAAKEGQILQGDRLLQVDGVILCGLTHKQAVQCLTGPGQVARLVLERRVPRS
Assay: holdup assay
Parameters: key: below the threshold = too weak to quantify, mostly under pKd 3.1 to 4
Settings: plain residues with an end cap or a label only (N-terminal biotin on a linker: ado-ado)

>  <binder>
QKAPTKEFYA [SDC2, P34741]

>  <pKd>
3.61

$$$$
>  <binder>
LKDDELKTKL [SLCO1A2, P46721]

>  <pKd>
below the threshold

$$$$
>  <binder>
DTKNYKQTSV [CRIPT, Q9P021]

>  <pKd>
below the threshold

$$$$
>  <binder>
NIAESLESLV [PTPRZ1, P23471]

>  <pKd>
4.66

$$$$
>  <binder>
APIAGFSSFV [SDK2, Q58EX2]

>  <pKd>
4.36

$$$$
>  <binder>
PSHPRLQTHV [KIRREL2, Q6UWL6]

>  <pKd>
below the threshold

$$$$
>  <binder>
EDLEDEWEVI [TECPR2, O15040]

>  <pKd>
below the threshold

$$$$
>  <binder>
LESTTVGTSV [KARS1, Q15046]

>  <pKd>
3.79

$$$$
>  <binder>
LPAVCYDIDI [PTTG2, Q9NZH5]

>  <pKd>
below the threshold

$$$$
>  <binder>
EDPRVEVTQF [SLC22A9, Q8IVM8]

>  <pKd>
below the threshold

$$$$
>  <binder>
GEDRSPPTAL [MKNK1, Q9BUB5]

>  <pKd>
below the threshold

$$$$
>  <binder>
AEASVACSLC [PTGIR, P43119]

>  <pKd>
below the threshold

$$$$
>  <binder>
ILRKSTTTTV [PRR16, Q569H4]

>  <pKd>
below the threshold

$$$$
>  <binder>
ARESQKVSHV [FAM110B, Q8TC76]

>  <pKd>
4.31

$$$$
>  <binder>
TRKRSGEAAV [PFKM, P08237]

>  <pKd>
below the threshold

$$$$
>  <binder>
NTLNRKTTPV [CACNG8, Q8WXS5]

>  <pKd>
3.85

$$$$
>  <binder>
PYSESDDDWC [CACNA1A, O00555]

>  <pKd>
below the threshold

$$$$
>  <binder>
NNNVVKVDSV [MTNR1A, P48039]

>  <pKd>
below the threshold

$$$$
>  <binder>
LAHVKHKEQI [AQP3, Q92482]

>  <pKd>
below the threshold

$$$$
>  <binder>
STKRKLASAV [NCF1, P14598]

>  <pKd>
below the threshold

$$$$
>  <binder>
PPGKHLVTEV [KCNA7, Q96RP8]

>  <pKd>
4.51

$$$$
>  <binder>
EKCGKEFSEF [PRKACA, P17612]

>  <pKd>
below the threshold

$$$$
>  <binder>
QSGLYESEEL [MYOT, Q9UBF9]

>  <pKd>
below the threshold

$$$$
>  <binder>
QSYPSKHDYV [CLDN18, P56856]

>  <pKd>
below the threshold

$$$$
>  <binder>
PSVGSKKTVL [REELD1, A0A1B0GV85]

>  <pKd>
below the threshold

$$$$
>  <binder>
KPGKGSETVV [FZD4, Q9ULV1]

>  <pKd>
below the threshold

$$$$
>  <binder>
ARSAAASNYV [CLDN4, O14493]

>  <pKd>
below the threshold

$$$$
>  <binder>
DRIQSCLSDA [SBF1, O95248]

>  <pKd>
below the threshold

$$$$
>  <binder>
DPAESMESLV [PTPRG, P23470]

>  <pKd>
4.54

$$$$
>  <binder>
NVYGIESVKI [GRIA2, P42262]

>  <pKd>
below the threshold

$$$$
>  <binder>
SPDRDRESIV [SCN5A, Q14524]

>  <pKd>
3.76

$$$$
>  <binder>
SRSVVESDEL [MYPN, Q86TC9]

>  <pKd>
below the threshold

$$$$
